system: SNB-19 CNS; experiment: NCI-60 one-dose screen, 48 h (100 = growth as untreated, 0 = no growth, -100 = all killed); conditions: 10 µM
The panel holds about 83,000 compounds, 20% with a hit somewhere; the sample as a whole holds those more often.
PROPERTY_LABEL: growth (%)
Just the number please, in %, no unit attached.

Consider `COc1ccc(-c2nn(-c3cccc(Cl)c3)cc2-c2c(C#N)c(N)n(N)c(=O)c2C#N)cc1` . Its measured growth is 64

Consider `CCc1c2c(nc3ccc(OC(=O)N4CCC(N5CCCCC5)CC4)cc13)-c1cc3c(c(=O)n1C2)COC(=O)[C@]3(O)CC` . Its measured growth is 26

Consider `CNC(=O)c1cc(Oc2ccc3c(c2)sc2nc(-c4ccc(N)cc4)cn23)ccn1` . Its measured growth is 32.1

Consider `COc1cc(C(=O)N2CCN(c3cc4c(cc3F)c(=O)c(C(=O)NO)cn4C3CC3)CC2)cc(OC)c1OC` . Its measured growth is 100
